# Assay notes: yeast display, Sf9 membrane polyspecificity reagent, FACS + sequencing; frameworks hold sequencing errors
Measured endpoint: polyreactivity (PSR sort gate)

QVQLVESGGGLVQAGGSLRLSCAASGRIFWANAMGWYRQATGKERELVAAITGSGRTYYADSVKGRFTISRDNAKNTVYLQMISLKREDTAVYYCAAVTYYELAQGYGYWGQGTQVTVSS : high polyreactivity
QVQLVESGGGLVQAGGRLRLRCAACGFTFARYAMGRSSQAPGKERELLAAITWSAGSTYYADSVKGRFTISRDTGKNTVFLQMTRLKPEDTAVYYCNALVIARNIEMDYWGQGTQVTVSS : high polyreactivity
QVQLVESGGGLVQAGGSLRLSCAASGLTFYKYAMGWYRQAPGKERELVAAITSTGGSTYYADSVKGRFTISRDNAKNTVYLQMNSLKPEDTAVYYCAAQWYTALYYWGQGTQVTVSS : high polyreactivity
QVQLVESGGGLVQAGGSLRLSCAASGSTFYAYVMGWYRQAPGKERELVAAITSAGSTYYADSVKGRFTISRDNAKNTVYLQMNSLKPEDTAVYYCAAYYIVHSRQTQGFERYDYWGQGTQVTVSS : low polyreactivity
QVQLVESGGGLVQAGGSLRLSCAASGSTFGWYTMGWYRQAPGKERELVAAITSRGTRTSYADSVKGRFTISRDYAKNTVYLQMNSLKPEDTAVYYCAARVFRGLGEYYWGQGTQVTVSS : high polyreactivity
QVQLVESGGGLVQAGGSLRLSCAASGRTFYNTMGWYRQPPGKERELVAAISRGGITNYADSVKGRFTISRDNAKNTVYLQMNSLKPEDTAVYYCNAEPKLYYYYYKFDYWGQGTQVTVAS : high polyreactivity
QVQLVESGGGLVQAGGSLLLSCAASGGTFYYYAMGWYRQAPGKERELVASISSRGGSTYYADSVKGRFTISRDNAKNTVYLQMNSLKPEDTAVYYCAARSLYSGFGYWGQGTQVTVSS : high polyreactivity
QVQLVESGGGLVQAGGSLRLSCAASGFIFVPYTMGWYRQAPGKERELVATINSNGGSTYYADSVKGRFTISRDNAKNTVYLQMNSLKPEDTAVYYCAAYYRWIGGRYTPYYYWGQGTQVTVSS : high polyreactivity

// polyreactivity (PSR sort gate) lookup, key: `QVQLVESGGGFVQAGGSLRLSCAASGSTFYTYTLGWYRQAPGKERELVAAISSSGGDTYYADSVKGRFTISRDNAKNTVYLQMNSLKPEDTAVYYCAALGAFPSLEFDYWGQGTQVTVSS`
low polyreactivity

// polyreactivity (PSR sort gate) lookup, key: `QVQLVESGGGLFHAGGRLRLSCAASGRIFGRYDMGWSIQAPGKERELVASISTGGGGTYYADSVKGRFTISRDNAKNTVYLQMNSLKPEDTAVYYCAKAWRGFWTKYDYWGQGTQVTVSS`
low polyreactivity

// polyreactivity (PSR sort gate) lookup, key: `QVQLVESGGGLVQAGGSLRLSCAASGLIFRHYAMGWYRQAPGKERELVAAINWDGTSTDYADSVKGRFTISRDNAKNTVYLQMNSLKPEDTAVYYCAAEGHTAFVVYRVSPLQYDYWGHGTQVTVSS`
low polyreactivity

====

# Assay notes: yeast display, Sf9 membrane polyspecificity reagent, FACS + sequencing; frameworks hold sequencing errors
Measured endpoint: polyreactivity (PSR sort gate)

QVQLVESGGGLVQAGGSLRLSCAASGSTFTSNVMGWYRQAPGKERELVAAISTNGGRTYYADSVKGRFTISRDNAKNTVYLQMNSLKPEDTAVYYCAASLPRPGIGGRDYWGQGTQVTVSS : low polyreactivity
QVQLVESGGGLVQAGGSLRLSCAASGITFLWNVMGWYRQAPGKERELVATITSIGGITNYADSVKGRFTISRDNAKNTVYLQMNSLKPEDTAVYYCARDDRDIRGESGREGFLYDYWGQGTQVTVSS : low polyreactivity
QVQLVESGGGLVQAGGSLRLSCAASGRIFKDNAMGWYRQAPGKERELLATIDSGGDTNYADSVKGRFTISRDNAKNTVYLQMNSLKPEDTAVYYCNTEGFLSAVFAFGYWGQGTQVTVSS : low polyreactivity
QVQLVESGGGLVKAGAILRLSCPASGSTFQSYAKGWSRQEPGKESELVAAISSGGITYYADSVKGRFTISRDNAKNTVYFQMNSLKPEDTAVYYCAKVPTYLISNRYSRYDYWGQGTQVTVSS : low polyreactivity
QVKLVESGGGLVQAGGSLRLSCAASGSIFLVKVMGWYRQAPGKERELVAAITWSGGRTYYADSVKGRFTISRDNAKNTVYLQMIILKPEDTAVYYCAAEGWLLNGDSWGQGTQVTVSS : high polyreactivity

// polyreactivity (PSR sort gate) lookup, key: `QVQLVESGVGLVQAGGSLRLSCAASGSIFESYAMGWYRQAPGKVRELVADITYDGGITYYADSVKGRFTISRDNAKNTVYLQMNSLKPEDTAVYYCAKQYYFTFWGQGTQVTVSS`
low polyreactivity

// polyreactivity (PSR sort gate) lookup, key: `QVQLVESGGGLVQAGGTLSLSCAASGFIFYRTARGWSRQAPGKDRELVAGISRVGSTYYADSVKGRFTISRDNAKNTVYLQMNSLKPEDTAVDYCAARSGYFYGYGYWGQGTQVTVSS`
high polyreactivity

// polyreactivity (PSR sort gate) lookup, key: `QVQLEESGGGLVQAGGSLRLSCAASGFTFYYYAMGWYRQAPGKERELVAAINTSGGSTYYADSVKGRFTNSRDNAKNTVYLQMNSLKPVDTAVYYCAAVDGFWTQYPRMGYWGQGTQVTVSS`
high polyreactivity

// polyreactivity (PSR sort gate) lookup, key: `QVQLVESGGGLVQAGGSLRLSCAASGIIFRLYAMGWYRQAPGTERELVAAISRRGDSTYYADSVKGRFTISRDNAKNTGYVQMNSLKPEDTAVYYCAAVYVPYYWLGRSRGLDYWGQGTQVSVSS`
high polyreactivity

// polyreactivity (PSR sort gate) lookup, key: `QVQLVESGGGLVQAGGSLRFSCAASGSIFRLYAMGWYRLAPGKDRELVATLTSGGNTYADSVKGRFTISRENAKNTVYLQMNSLKPEDTAVYYCHAGQYGYYYKGYDYWGQGTQVTVSS`
high polyreactivity

// polyreactivity (PSR sort gate) lookup, key: `QVQLVESGGGLVQAGGSLRLSCAASGRTFGLNVMGWYRQAPGKERELVAAISRSGGSTYYADSVKGRFTISRDNAKNTVYLQMNSLKPEDTAVYYCAAVSRYYPYGYWGQGTQVTVSS`
high polyreactivity
